- Experimental system: CAMKK2 (human) (UniProt Q96RR4)
- Sequence (Q96RR4 whole entry, looked up): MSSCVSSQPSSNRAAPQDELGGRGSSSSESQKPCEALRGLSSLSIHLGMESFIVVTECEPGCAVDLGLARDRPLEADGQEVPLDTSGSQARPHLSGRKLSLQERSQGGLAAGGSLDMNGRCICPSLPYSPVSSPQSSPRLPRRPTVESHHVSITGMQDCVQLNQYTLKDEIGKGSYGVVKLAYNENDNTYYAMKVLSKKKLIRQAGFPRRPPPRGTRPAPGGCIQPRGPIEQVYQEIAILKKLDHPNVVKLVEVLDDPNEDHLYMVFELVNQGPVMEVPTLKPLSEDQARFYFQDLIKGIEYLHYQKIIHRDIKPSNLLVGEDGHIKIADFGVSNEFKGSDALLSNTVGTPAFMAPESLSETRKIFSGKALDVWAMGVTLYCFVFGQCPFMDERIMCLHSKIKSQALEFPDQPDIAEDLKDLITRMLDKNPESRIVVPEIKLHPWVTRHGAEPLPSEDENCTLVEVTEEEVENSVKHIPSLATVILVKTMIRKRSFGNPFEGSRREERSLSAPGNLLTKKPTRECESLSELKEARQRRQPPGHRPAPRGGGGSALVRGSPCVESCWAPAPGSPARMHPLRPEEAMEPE
- Assay protocol: KINOMEscan competition binding
- Condition info: compound 10.0 µM
Readout name: kinase still bound, per cent of control

In [3]: df
Out[3]:
                         compound_structure                             readout_name  value_measured
0  CCN1CCN(Cc2ccc(NC(=O)c3ccc(C)c(/C=C/c4cnc(Nc5cc(N6CCNCC6)nc(C)n5)cn4)c3)cc2C(F)(F)F)CC1  kinase still bound, per cent of control             95%
1  CCN1CCN(Cc2ccc(NC(=O)c3ccc(C)c(Oc4ccnc5[nH]ccc45)c3)cc2C(F)(F)F)CC1  kinase still bound, per cent of control             28%
2  CCOc1cc(N2CCC(N3CCCCC3)CC2)ccc1Nc1nc(Nc2ccccc2S(=O)(=O)C(C)C)c2cn[nH]c2n1  kinase still bound, per cent of control             46%
3  COc1cc(N2CCC(N3CCN(C)CC3)CC2)ccc1Nc1ncc(Cl)c(Nc2ccccc2S(=O)(=O)C(C)C)n1  kinase still bound, per cent of control            0.1%

----------
- Test system: EGFR (human), P00533 [G719S]
- Assay protocol: KINOMEscan competition binding
- Condition info: compound 10.0 µM
Readout name: kinase still bound, per cent of control (%)

>>> df
                         compound_structure  value_measured
0  CCN1CCN(Cc2ccc(NC(=O)c3ccc(C)c(Oc4ccnc5[nH]ccc45)c3)cc2C(F)(F)F)CC1              14
1  CCOc1cc(N2CCC(N3CCCCC3)CC2)ccc1Nc1nc(Nc2ccccc2S(=O)(=O)C(C)C)c2cn[nH]c2n1             100
2  CCN1CCN(Cc2ccc(NC(=O)c3ccc(C)c(/C=C/c4cnc(Nc5cc(N6CCNCC6)nc(C)n5)cn4)c3)cc2C(F)(F)F)CC1             5.4
3  COc1cc(N2CCC(N3CCN(C)CC3)CC2)ccc1Nc1ncc(Cl)c(Nc2ccccc2S(=O)(=O)C(C)C)n1             9.6

----------
- Experimental system: EPHA4 (human)
- Assay protocol: KINOMEscan competition binding
- Condition info: compound 10.0 µM
Readout name: kinase still bound, per cent of control (%)

>>> print(df.to_string())
                         compound_structure  experimental_system  quantity_unit  value_measured
0  CCN1CCN(Cc2ccc(NC(=O)c3ccc(C)c(/C=C/c4cnc(Nc5cc(N6CCNCC6)nc(C)n5)cn4)c3)cc2C(F)(F)F)CC1        EPHA4 (human)              %              16
1  CCN1CCN(Cc2ccc(NC(=O)c3ccc(C)c(Oc4ccnc5[nH]ccc45)c3)cc2C(F)(F)F)CC1        EPHA4 (human)              %             5.8
2  COc1cc(N2CCC(N3CCN(C)CC3)CC2)ccc1Nc1ncc(Cl)c(Nc2ccccc2S(=O)(=O)C(C)C)n1        EPHA4 (human)              %              30
3  CCOc1cc(N2CCC(N3CCCCC3)CC2)ccc1Nc1nc(Nc2ccccc2S(=O)(=O)C(C)C)c2cn[nH]c2n1        EPHA4 (human)              %             100
